The following compounds are shown together with reported log10 of IC50 values.
Biological target: ACAT (acyl-CoA: cholesterol acyl transferase) (Mus musculus)
Construct: endogenous in cells
Sequence (Q61263 1-540): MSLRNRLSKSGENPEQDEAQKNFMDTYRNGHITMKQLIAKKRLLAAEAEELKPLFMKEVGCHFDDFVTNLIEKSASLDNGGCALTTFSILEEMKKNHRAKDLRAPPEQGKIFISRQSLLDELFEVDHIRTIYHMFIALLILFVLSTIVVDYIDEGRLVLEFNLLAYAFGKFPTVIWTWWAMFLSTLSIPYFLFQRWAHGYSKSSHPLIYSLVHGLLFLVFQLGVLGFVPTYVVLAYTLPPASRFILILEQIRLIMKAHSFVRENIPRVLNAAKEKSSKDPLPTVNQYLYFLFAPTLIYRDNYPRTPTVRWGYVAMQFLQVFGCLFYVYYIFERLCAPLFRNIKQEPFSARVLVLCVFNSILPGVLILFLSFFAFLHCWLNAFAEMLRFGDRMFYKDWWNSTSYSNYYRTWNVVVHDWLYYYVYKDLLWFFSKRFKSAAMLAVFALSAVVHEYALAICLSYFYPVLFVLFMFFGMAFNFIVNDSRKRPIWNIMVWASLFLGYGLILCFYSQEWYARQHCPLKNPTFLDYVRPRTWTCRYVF
Experiment: Inhibition of ACAT in M.phi. (mouse peritoneal macrophages)
Settings: β-VLDL 50 μg cholesterol/ml, [14C]oleate-albumin, 37° C., 3 hours
Description: Blood was obtained [using the anticoagulant ethylene diamine tetraacetic acid (5 mM)] from Japanese White rabbits which had been fed a 2% w/w cholesterol diet for 2 weeks and then fasted overnight prior to removing the blood. β-VLDL (d<1.006 g/ml) was isolated by ultracentrifugation from the plasma according to the method of Hatch and Lees [Hatch, F T. and Lees, R S.,Adv. […]
# log10 transformed; quantity=IC50; unit=nM

CCCCCC(CC(=O)Nc1cc(C(=O)NC)ccc1C(C)(C)C)c1ccc(OC)cc1OC (stereo not drawn) = 1.78

Let us move to another entry and its log10 of IC50.
Returns the measured log10 of IC50 for the input compound. Input: CCCCCC(CC(=O)Nc1cc(C(=O)NC)ccc1C(C)(C)C)c1ccc(OCC(=O)NCCCC)cc1OC (stereo not drawn) 1.48
